Reported inhibition at 1 µM values for a set of molecules
- subjectOfTest: Human Recombinant Matriptase 2 (Homo sapiens, UniProt Q8IU80)
- Construct: purchased Enzo Life Sciences (an in-house preparation was also used) ALX-201-752-1
- Sequence (Q8IU80 1-811): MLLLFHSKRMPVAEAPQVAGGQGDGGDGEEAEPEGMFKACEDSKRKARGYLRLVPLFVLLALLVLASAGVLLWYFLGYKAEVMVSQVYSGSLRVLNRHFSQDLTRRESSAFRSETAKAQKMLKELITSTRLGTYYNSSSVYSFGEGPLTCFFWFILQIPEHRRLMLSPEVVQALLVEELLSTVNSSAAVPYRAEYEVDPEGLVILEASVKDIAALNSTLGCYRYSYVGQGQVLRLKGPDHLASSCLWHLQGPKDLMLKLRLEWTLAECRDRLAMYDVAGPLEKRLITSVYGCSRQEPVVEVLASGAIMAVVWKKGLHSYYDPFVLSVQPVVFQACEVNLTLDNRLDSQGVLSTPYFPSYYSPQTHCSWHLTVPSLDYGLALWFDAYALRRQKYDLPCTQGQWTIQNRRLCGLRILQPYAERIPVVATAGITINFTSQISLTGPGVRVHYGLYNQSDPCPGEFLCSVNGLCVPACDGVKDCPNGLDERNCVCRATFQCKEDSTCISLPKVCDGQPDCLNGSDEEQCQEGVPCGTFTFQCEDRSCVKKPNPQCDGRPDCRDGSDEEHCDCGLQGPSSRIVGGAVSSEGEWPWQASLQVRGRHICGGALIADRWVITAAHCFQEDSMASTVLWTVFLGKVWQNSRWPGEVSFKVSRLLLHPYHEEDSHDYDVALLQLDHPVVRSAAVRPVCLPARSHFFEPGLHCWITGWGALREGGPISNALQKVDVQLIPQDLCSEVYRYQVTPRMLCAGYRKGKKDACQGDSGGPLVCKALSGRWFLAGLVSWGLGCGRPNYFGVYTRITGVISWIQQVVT
- experimentSummary: Matriptase 2 fluorescence based inhibition assay, Method B (50 mM TRIS pH 7.5, 150 mM NaCl, 0.01% gelatin)
- Type: biochemical
- conditionSummary: 1 uM compound; Assay Used = B (Method B); read-out: Mar-2 % inhibition at 1 uM
measuredParameter: inhibition at 1 µM

[
  {
    "chemicalStructure": "N=C(N)c1ccc2cc(C(=O)O)n(Cc3cc(Oc4ccc(N)cc4F)cc4ccccc34)c2c1",
    "value": "50 to 75%"
  },
  {
    "chemicalStructure": "N=C(N)c1ccc2cc(C(=O)NCCO)n(Cc3cccc4ccccc34)c2c1",
    "value": "75 to 100%"
  },
  {
    "chemicalStructure": "N=C(N)c1ccc2c(c1)cc(C(=O)O)n2Cc1cccc2ccccc12",
    "value": "0 to 25%"
  },
  {
    "chemicalStructure": "N=C(N)c1ccc2cc(C(=O)O)n(Cc3cc(Oc4cccnc4)cc4ccccc34)c2c1",
    "value": "25 to 50%"
  },
  {
    "chemicalStructure": "N=C(N)c1ccc2cc(C(=O)N[C@H]3CC[C@H](N)CC3)n(Cc3cc(O)cc4ccccc34)c2c1",
    "value": "75 to 100%"
  },
  {
    "chemicalStructure": "N=C(N)c1ccc2cc(C(=O)NCC3(CN)CCCCC3)n(Cc3cccc4ccccc34)c2c1",
    "value": "75 to 100%"
  },
  {
    "chemicalStructure": "NCc1ccc2cc(C(=O)N[C@H]3CC[C@H](N)CC3)n(Cc3cc(S(=O)(=O)c4ccccc4)cc4ccccc34)c2c1",
    "value": "25 to 50%"
  },
  {
    "chemicalStructure": "CC(C)OC(=O)NC(=N)c1ccc2cc(C(=O)NC3CCN(C)CC3)n(Cc3cccc4ccccc34)c2c1",
    "value": "25 to 50%"
  },
  {
    "chemicalStructure": "N=C(N)c1ccc2cc(C(=O)N[C@H]3CC[C@H](N)CC3)n(Cc3cnoc3-c3ccc(Cl)s3)c2c1",
    "value": "25 to 50%"
  },
  {
    "chemicalStructure": "CC(C)COC(=O)c1cc(Cn2c(C(=O)N[C@H]3CC[C@H](N)CC3)cc3ccc(C(=N)N)cc32)c2ccccc2c1",
    "value": "75 to 100%"
  },
  {
    "chemicalStructure": "Cc1c(C(=O)N[C@H]2CC[C@H](N)CC2)n(Cc2cccc3ccccc23)c2cc(C(=N)N)ccc12",
    "value": "75 to 100%"
  },
  {
    "chemicalStructure": "N=C(N)c1ccc2cc(CC(=O)N[C@H]3CC[C@H](N)CC3)n(Cc3cccc4ccccc34)c2c1",
    "value": "75 to 100%"
  },
  {
    "chemicalStructure": "N=C(N)c1ccc2cc(C(=O)N[C@H]3CC[C@H](N)CC3)n(Cc3cc(Sc4ccccc4)cc4ccccc34)c2c1",
    "value": "75 to 100%"
  },
  {
    "chemicalStructure": "N=C(N)c1ccc2cc(C(=O)N[C@H]3CC[C@H](N)CC3)n(Cc3cc(S(=O)(=O)c4ccccc4)cc4ccccc34)c2c1",
    "value": "75 to 100%"
  },
  {
    "chemicalStructure": "N=C(N)c1ccc2cc(C(=O)Nc3cccc4c3OCCO4)n(Cc3cccc4ccccc34)c2c1",
    "value": "0 to 25%"
  },
  {
    "chemicalStructure": "N=C(N)c1ccc2cc(C(=O)O)n(Cc3cc(Oc4ccccn4)cc4ccccc34)c2c1",
    "value": "75 to 100%"
  },
  {
    "chemicalStructure": "NC(=NO)c1ccc2cc(C(=O)O)n(Cc3cc(Oc4ccccc4)cc4ccccc34)c2c1",
    "value": "0 to 25%"
  },
  {
    "chemicalStructure": "CCOC(=O)c1cc2ccc(C(=N)NC(=O)OCC(C)C)nc2n1Cc1cccc2ccccc12",
    "value": "0 to 25%"
  },
  {
    "chemicalStructure": "Cc1ccc(S(=O)(=O)Oc2cc(Cn3c(C(=O)N[C@H]4CC[C@H](N)CC4)cc4ccc(C(=N)N)cc43)c3ccccc3c2)cc1",
    "value": "75 to 100%"
  },
  {
    "chemicalStructure": "N=C(N)c1ccc2cc(C(=O)N[C@H]3CC[C@H](N)CC3)n(Cc3cc(C(=O)OCc4ccccc4)cc4ccccc34)c2c1",
    "value": "75 to 100%"
  },
  {
    "chemicalStructure": "CNC(=O)c1cc2ccc(C(=N)N)cc2n1Cc1cccc2ccccc12",
    "value": "50 to 75%"
  },
  {
    "chemicalStructure": "CO/N=C(\\N)c1ccc2cc(C(=O)O)n(Cc3cccc4ccccc34)c2n1",
    "value": "0 to 25%"
  },
  {
    "chemicalStructure": "N=C(N)c1ccc2cc(N3CCOCC3)n(Cc3cccc4ccccc34)c2c1",
    "value": "25 to 50%"
  },
  {
    "chemicalStructure": "CS(=O)(=O)Nc1cc2ccc(C(=N)N)cc2n1Cc1cccc2ccccc12",
    "value": "50 to 75%"
  },
  {
    "chemicalStructure": "N=C(N)c1ccc2cc(C(=O)O)n(Cc3cc(Oc4cnccn4)cc4ccccc34)c2c1",
    "value": "50 to 75%"
  }
]
